This listing pairs compounds with measured IC50.
Target: 5-lipoxygenase (Rattus norvegicus)
Construct: 20,000x g supernatant from homogenized RBL-1 cells; endogenous in cells
Sequence (P12527 whole entry): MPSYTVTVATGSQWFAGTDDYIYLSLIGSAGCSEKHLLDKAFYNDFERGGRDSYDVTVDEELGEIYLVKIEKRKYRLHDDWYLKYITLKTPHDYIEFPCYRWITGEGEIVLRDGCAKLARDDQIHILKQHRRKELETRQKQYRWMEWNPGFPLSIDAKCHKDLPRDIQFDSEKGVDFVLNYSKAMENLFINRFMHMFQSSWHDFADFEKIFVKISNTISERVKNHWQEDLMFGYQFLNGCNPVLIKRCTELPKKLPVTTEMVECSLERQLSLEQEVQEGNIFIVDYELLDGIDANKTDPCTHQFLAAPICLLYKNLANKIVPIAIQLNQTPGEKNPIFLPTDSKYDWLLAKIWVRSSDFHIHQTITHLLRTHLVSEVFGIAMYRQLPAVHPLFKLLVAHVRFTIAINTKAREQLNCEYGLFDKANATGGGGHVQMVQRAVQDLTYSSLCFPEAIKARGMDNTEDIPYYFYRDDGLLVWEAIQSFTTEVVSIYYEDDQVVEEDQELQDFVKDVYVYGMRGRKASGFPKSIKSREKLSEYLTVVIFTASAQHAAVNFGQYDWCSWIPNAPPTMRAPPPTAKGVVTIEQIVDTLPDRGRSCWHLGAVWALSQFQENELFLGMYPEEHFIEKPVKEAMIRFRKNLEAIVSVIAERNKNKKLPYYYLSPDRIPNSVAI
Assay: Inhibition of 5-lipoxygenase activity (20,000x g supernatant from homogenized RBL-1 cells)
Conditions: linear regression of percentage inhibition versus log inhibitor concentration, read-out: IC50 (concentration of compound producing 50% enzyme inhibition)
Express it in nM; write the number only.

{"COMPOUND": "COc1ccc2cc(C(C)c3sc(-c4ccccc4)nc3O)ccc2c1 (centres unmarked) [Example 5]", "MEASURE_UNIT": "nM", "RECORDED_RESULT": 900}
{"COMPOUND": "CCC(c1ccc(CC(C)C)cc1)c1nc(O)c(-c2ccccc2)s1 (centres unmarked) [Example 4]", "MEASURE_UNIT": "nM", "RECORDED_RESULT": 60}
{"COMPOUND": "CC(C)Cc1ccc(C(C)c2nc(O)c(-c3ccccc3)s2)cc1 (centres unmarked) [Example 2]", "MEASURE_UNIT": "nM", "RECORDED_RESULT": 710}
{"COMPOUND": "COc1ccc2cc(C(C)c3nc(O)c(-c4ccccc4)s3)ccc2c1 (centres unmarked) [Example 1]", "MEASURE_UNIT": "nM", "RECORDED_RESULT": 420}

Could you now look at the following compound, please?
# input Which value of IC50 has been reported for CC(C)Cc1ccc(Cc2nc(O)c(-c3ccccc3)s2)cc1 [Example 3] in the records?
# output 1100
